Parameter Shanks Color Hue h*ab % of Controls: see the listing below.
System: skin and shanks of broilers
protocolSummary: Reflectance colorimetry and visual classification of skin and shanks of broilers
Format: in vivo, broiler chickens (Ross 308, Ross 508)
assaySetup: dry carcasses, average over doses, Table 6
A number alone suffices; assume %.

Please review the entries below; each comes with its answer.
COC(=O)C(C)=CC=CC(C)=CC=CC=C(C)C=CC=C(C)C=CC1=C(C)CCCC1(C)C [(1), methyl beta-apo-8′-carotenoate]
101
CC(C=CC=C(C)C=CC1=C(C)CCCC1(C)C)=CC=CC=C(C)C=CC=C(C)C(=O)OC1CCCCC1 [(16), cyclohexyl beta-apo-8′-carotenoate]
103

Attention now shifts to the item below.
Qu. Give Shanks Color Hue h*ab % of Controls for the following molecule: CC(C=CC=C(C)C=CC1=C(C)CCCC1(C)C)=CC=CC=C(C)C=CC=C(C)C(=O)OC(C)CC(C)C (stereo not drawn) [(12)]
Ans. 101
